# System: A2780 cells
# experiment summary: Viability assay in A2780 (Cell Titer Glo)
# Type: cell-based, human
# details: Homo sapiens; A2780 cells; read-out: A2780 Cell prolif. EC50
pEC50: −log10 of the molar value.
pEC50 values by entry

> print(dat)
                    structure.smiles.string  result
1  Nc1ncc(-c2ccc3nc(NC(=O)CN4CCCCC4)cn3c2)nc1OCC(F)(F)F  > 6.00
2  CC(=O)Nc1cn2cc(-c3cnc(N)c(C(=O)N4CCNCC4)c3)ccc2n1  > 4.60
3  Nc1ncc(-c2ccc3nc(NC(=O)Cc4cccc5ccccc45)cn3c2)cc1C(F)(F)F  > 6.00
4  Cc1cc(C(=O)Nc2cn3cc(-c4cnc(N)c(C(F)(F)F)c4)ccc3n2)no1  > 6.00

Please report the measured pEC50 for `COCCOc1nc(-c2ccc3nc(NC(C)=O)cn3n2)cnc1N` tested on A2780 cells. > 5.00

Fill in: pEC50 on A2780 cells, entry `COc1ccc(CC(=O)Nc2cn3cc(-c4cnc(N)c(C(F)(F)F)c4)ccc3n2)cc1OC` > 5.00

Name the recorded pEC50 of `CC(=O)Nc1cn2cc(-c3cnc(N)c(OC4CCC4)n3)ccc2n1` , assay system A2780 cells. > 6.00

Answer briefly: pEC50 recorded on A2780 cells for `CC(=O)Nc1cn2cc(-c3cnc(N)c(/C=N/N(C)C)c3)ccc2n1` > 5.00

Quote A2780 cells pEC50 for entry `CC(=O)Nc1cn2cc(-c3cnc(N)c(C(F)(F)F)c3)cc(F)c2n1` . > 5.00

---

# System: A2780 cells
# experiment summary: Viability assay in A2780 (Cell Titer Glo)
# Type: cell-based, human
# details: Homo sapiens; A2780 cells; read-out: A2780 Cell prolif. EC50
# Protocol: Cell viability was assessed with Cell Titer Glo assay, Promega. Cells were seeded in TC treated 96-well plates at a density of 1,000 (A2780 cells) per well in DMEM with 10% FBS, 1% Sodium Pyruvate, and 1% Penicillin Streptomycin for a minimum of 2 hrs prior to addition of compound. […] Raw data was imported in Abase and EC50s calculated with XL-fit data analysis software and are shown in Tables 1 and 2 in the column labeled “A2780 Cell prolif. […]
// reported EC50 for each item listed

Solved entries (count: 3):
> print(dat)
                                   compound   result
1  Nc1ncc(-c2ccc3nc(NC(=O)N4CC[C@H]4C(=O)O)cn3c2)cc1C(F)(F)F [Example 45]  < 25 µM
2  COCCOc1nc(-c2ccc3nc(NC(=O)C4CCN4C(C)=O)cn3c2)cnc1N (stereo not shown) [Example 249]  < 10 µM
3  CC(=O)Nc1nc2ccc(-c3cnc(N)c(C(F)(F)F)c3)cn2c1CCc1ccccc1 [Example 254]  < 10 µM

Here is another compound to look at.
Provide EC50, system A2780 cells, entry CC(=O)Nc1cn2cc(-c3cnc(N)c(/C=N/OC(C)(C)C)c3)ccc2n1 [Example 157] < 25 µM

---

Let's look at some compounds and their measured Ki.
# tested system: human PI3Kγ (GST-p110γ) (Homo sapiens)
# Construct: Residues 38-1102 of human PI3Kγ are subcloned into the BamH1 and EcoR1 sites of the transfer vector pAcG2T
# Sequence (P48736 38-1102): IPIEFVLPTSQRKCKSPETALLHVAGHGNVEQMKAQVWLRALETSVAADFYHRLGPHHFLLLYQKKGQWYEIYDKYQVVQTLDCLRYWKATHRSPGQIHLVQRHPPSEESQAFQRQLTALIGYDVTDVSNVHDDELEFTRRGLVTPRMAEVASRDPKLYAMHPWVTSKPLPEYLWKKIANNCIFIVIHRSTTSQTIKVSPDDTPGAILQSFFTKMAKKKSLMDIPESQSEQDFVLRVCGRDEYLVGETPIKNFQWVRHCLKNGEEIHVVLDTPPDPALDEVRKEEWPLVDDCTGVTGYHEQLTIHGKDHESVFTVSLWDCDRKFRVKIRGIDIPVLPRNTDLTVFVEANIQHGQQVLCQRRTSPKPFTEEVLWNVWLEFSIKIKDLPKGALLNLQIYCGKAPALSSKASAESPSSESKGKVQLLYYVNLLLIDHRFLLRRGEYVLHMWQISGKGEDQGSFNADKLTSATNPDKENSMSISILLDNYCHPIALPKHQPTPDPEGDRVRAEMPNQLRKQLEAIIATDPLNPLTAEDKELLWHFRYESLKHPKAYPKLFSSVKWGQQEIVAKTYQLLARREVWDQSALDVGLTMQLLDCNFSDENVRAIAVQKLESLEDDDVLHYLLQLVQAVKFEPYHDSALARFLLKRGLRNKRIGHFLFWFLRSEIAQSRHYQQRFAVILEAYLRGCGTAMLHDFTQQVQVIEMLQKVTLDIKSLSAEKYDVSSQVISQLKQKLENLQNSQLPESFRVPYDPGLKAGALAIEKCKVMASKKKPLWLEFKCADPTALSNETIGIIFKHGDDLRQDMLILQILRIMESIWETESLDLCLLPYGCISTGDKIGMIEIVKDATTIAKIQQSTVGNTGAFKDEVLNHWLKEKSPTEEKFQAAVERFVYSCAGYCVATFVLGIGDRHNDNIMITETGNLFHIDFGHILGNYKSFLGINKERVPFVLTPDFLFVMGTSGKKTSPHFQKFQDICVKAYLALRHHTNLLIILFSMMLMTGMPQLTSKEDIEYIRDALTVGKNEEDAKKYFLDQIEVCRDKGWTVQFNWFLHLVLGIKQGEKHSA
# experiment summary: PI3K scintillation proximity kinase assay, gamma isoform
# details: PI3 kinase isoform gamma

The following compounds have reported results that may help.
> print(dat)
                                   compound  result
1  Nc1ncc(-c2ccc3nc(NC(=O)NCCn4nnc(C5CC5)n4)cn3c2)cc1C(F)(F)F [Example 3-5]  < 1 µM
2  CC(C)n1nnc(CCNC(=O)Nc2cn3cc(-c4cnc(N)c(C(F)(F)F)c4)ccc3n2)n1 [Example 3-2]  < 1 µM
3  CC(C)n1nnc(CCNC(=O)Nc2cn3cc(-c4ccc(N)nc4)ccc3n2)n1 [Example 3-3]  < 1 µM
4  CCn1nnc(CCNC(=O)Nc2cn3cc(-c4cnc(N)c(C(F)(F)F)c4)ccc3n2)n1 [Example 3-1]  < 1 µM

Attention now turns to another entry.
Tell me Ki reported for CCc1nnn(CCNC(=O)Nc2cn3cc(-c4cnc(N)c(C(F)(F)F)c4)ccc3n2)n1 [Example 3-4] < 1 µM

---

Reported pEC50 values are given for each entry in this list.
# Tested on: A2780 cells
# experiment summary: Viability assay in A2780 (Cell Titer Glo)
# Assay type: cell-based, human
# details: Homo sapiens; A2780 cells; read-out: A2780 Cell prolif. EC50
pEC50: −log10 of the molar value.

Some compounds with known pEC50 results, for comparison:
> print(dat)
                                    compound  result
 1  CC(=O)N1CCCC[C@H]1C(=O)Nc1cn2cc(-c3cnc(N)c(C(F)(F)F)c3)ccc2n1  > 4.60
 2  Nc1ncc(-c2ccc3nc(NC(=O)COCc4ccccc4)cn3n2)cc1C(F)(F)F  > 5.00
 3  Nc1ncc(-c2ccc3nc(NC(=O)CO[C@H]4CCNC4)cn3n2)cc1C(F)(F)F  > 6.00
 4  CC(=O)N1CCC[C@H]1C(=O)Nc1cn2cc(-c3cnc(N)c(Cl)c3)ccc2n1  > 4.60
 5  CC(=O)Nc1cn2cc(-c3cnc(N)c(C(=O)NCCO)n3)ccc2n1  > 4.60
 6  Nc1ncc(-c2ccc3nc(NC(=O)[C@@H]4CCCN4)cn3n2)cc1C(F)(F)F  > 5.00
 7  Cc1ccc(C2CCCN2C(=O)Nc2cn3cc(-c4cnc(N)c(C(F)(F)F)c4)ccc3n2)s1 (stereo not shown)  > 4.60
 8  COCC(=O)Nc1cn2nc(-c3cnc(N)c(C(F)(F)F)c3)ccc2n1  > 6.00
 9  CC(=O)Nc1cn2nc(-c3cnc(N)c(C(=O)NCCO)c3)ccc2n1  > 4.60
10  Nc1ncc(-c2ccc3nc(NC(=O)CCCC(=O)O)cn3n2)cc1C(F)(F)F  > 4.60

State its pEC50 for this compound: `CC(=O)Nc1cn2nc(-c3cnc(N)c(N4CCOCC4)n3)ccc2n1` > 4.60

Kindly indicate its recorded pEC50. Item: `CC(=O)Nc1nc2ccc(-c3cnc(N)c(C(F)(F)F)c3)cn2c1-c1ccc(C(N)=O)cc1` > 4.60

Kindly indicate its recorded pEC50. Item: `CNCC(=O)Nc1cn2cc(-c3cnc(N)c(C(F)(F)F)c3)ccc2n1` > 6.00

Please give measured pEC50 of the following entry: `COc1nc(-c2ccc3nc(NC(C)=O)cn3n2)cnc1N` > 5.00

Please report the measured pEC50 for `CC(=O)Nc1cn2cc(-c3cnc(N)c(C)c3)ccc2n1` > 5.00

Provide one value: measured pEC50 of `Nc1ncc(-c2ccc3nc(NC(=O)c4ccncc4)cn3c2)cc1C(F)(F)F` > 4.60

Quote pEC50 reported for `COC(=O)CCCC(=O)Nc1cn2nc(-c3cnc(N)c(C(F)(F)F)c3)ccc2n1` please. > 5.00

Look up pEC50 of `CC(=O)Nc1nc2ccc(-c3cnc(N)c(C(F)(F)F)c3)cn2c1-c1cccc(F)c1` and report it. > 4.60

Look up and state reported pEC50 for `CNC(=O)c1ccc(-c2c(NC(C)=O)nc3ccc(-c4cnc(N)c(C(F)(F)F)c4)cn23)cc1` > 4.60

Please give measured pEC50 of the following entry: `Nc1ncc(-c2ccc3nc(NC(=O)CO[C@@H]4CCNC4)cn3n2)cc1C(F)(F)F` > 6.00

---

# Tested on: pSer473-Akt in A2780 cells
# experiment summary: pSer473 Akt assay to monitor PI3K pathway in A2780 cells (MSD)
# Assay type: cell-based
# details: Homo sapiens; A2780 cells; read-out: A2780 pAKT 473 EC50
pEC50: −log10 of the molar value.
// pEC50 lookup, one value per entry

> print(dat)
                    structure.smiles.string  result
1  Nc1ncc(-c2ccc3nc(NC(=O)Cc4cccc5ccccc45)cn3c2)cc1C(F)(F)F  > 6.00

Please indicate pEC50 recorded for `CC(=O)Nc1cn2cc(-c3cnc(N)c(OC4CN(C(=O)c5ccccc5)C4)n3)ccc2n1` > 6.00

Return the recorded pEC50 value; entry: `CC(=O)Nc1cn2cc(-c3cnc(N)c(F)c3)ccc2n1` > 6.00

---

# Test system: A2780 cells
# experiment summary: Viability assay in A2780 (Cell Titer Glo)
# Type: cell-based, human
# details: Homo sapiens; A2780 cells; read-out: A2780 Cell prolif. EC50
pEC50: −log10 of the molar value.
Parameter pEC50: see the listing below.

Here is how some compounds turned out for pEC50.
> print(dat)
                    structure.smiles.string  result
1  CCN1CCN(CCCC(=O)Nc2cn3cc(-c4cnc(N)c(C(F)(F)F)c4)ccc3n2)CC1  > 5.00
2  CNC(=O)[C@@H]1CCCN1C(=O)Nc1cn2cc(-c3cnc(N)c(C(F)(F)F)c3)ccc2n1  > 4.60

Annotate the compound `Nc1ncc(-c2ccc3nc(NC(=O)[C@H]4CCCN4)cn3n2)cc1C(F)(F)F` with its measured pEC50. > 4.60

// Input: `CCN1CCC(OCC(=O)Nc2cn3cc(-c4cnc(N)c(C(F)(F)F)c4)ccc3n2)CC1` . Output its pEC50 only. > 5.00

Give reported pEC50 value for `CCC(=O)Nc1cn2cc(-c3cnc(N)c(OC)n3)ccc2n1` > 5.00
